Target: IRAK4 (Homo sapiens)
Sequence (Q9NWZ3 1-460): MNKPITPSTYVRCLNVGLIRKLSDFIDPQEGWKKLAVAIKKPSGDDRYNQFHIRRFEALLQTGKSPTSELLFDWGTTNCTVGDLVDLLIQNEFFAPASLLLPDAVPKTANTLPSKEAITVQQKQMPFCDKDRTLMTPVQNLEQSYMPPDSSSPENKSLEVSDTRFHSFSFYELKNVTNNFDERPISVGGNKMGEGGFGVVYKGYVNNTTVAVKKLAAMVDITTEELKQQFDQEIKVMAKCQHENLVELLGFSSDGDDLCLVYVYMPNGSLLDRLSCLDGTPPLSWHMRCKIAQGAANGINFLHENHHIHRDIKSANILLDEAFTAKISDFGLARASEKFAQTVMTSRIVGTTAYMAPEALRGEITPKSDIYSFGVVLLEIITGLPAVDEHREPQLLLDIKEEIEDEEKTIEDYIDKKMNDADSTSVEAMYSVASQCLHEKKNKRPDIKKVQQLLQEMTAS
Assay: OCI-LY-10 MSD assay for IRAK4 DC50
Assay type: cell-based
Set-up: endogenous in cells; host or cells: OCI-LY10
Conditions: OCI-LY10 cells, 4 hr incubation, concentration required to degrade 50% of protein
Kindly state DC50 for each of the entries shown.

Illustrative cases are given below, each with its answer.
Cn1c(=O)n(C2CCC(=O)NC2=O)c2ccc(CN3CCN(CCO[C@H]4C[C@H](NCc5ccc(-n6cc(NC(=O)c7coc(-c8ccnc(NCC9CC9)c8)n7)c(C(F)F)n6)cc5)C4)CC3)cc21 (stereo partly drawn) | < 50 nM
CC(C)(CCOCCCc1cccc2c1oc(=O)n2C1CCC(=O)NC1=O)NC(=O)c1ccc(-n2cc(NC(=O)c3coc(-c4ccnc(NCC5CC5)c4)n3)c(C(F)F)n2)cc1 (stereo not drawn) | 50 to 100 nM

# next molecule below
Request: Give DC50 only, for O=C1CCC(N2C(=O)c3cccc(NCCOCCOCCNC(=O)c4ccc(-n5cc(NC(=O)c6coc(-c7ccnc(NCC(F)(F)F)c7)n6)c(C(F)F)n5)cc4)c3C2=O)C(=O)N1 (stereo not drawn) , using IRAK4 (Homo sapiens) data.
Response: 100 to 500 nM

###

assay: Pharmacokinetics in CD-1 mice (plasma concentrations, PK parameters); assay type: in vivo; details: CD-1, mouse, plasma, sc, 30 mg/kg, mouse (CD1) sc 30 mg/kg; Mean SC; read-out: Cmax
readout_name: Cmax (ng/mL)
One number for each entry, in ng/mL.

Request: Please indicate Cmax recorded for NC(=O)c1nn(-c2ccc(C(=O)NCCOCCOCCNc3cccc4c3C(=O)N(C3CCC(=O)NC3=O)C4=O)cc2)cc1NC(=O)c1coc(-c2ccnc(NCC(F)(F)F)c2)n1 (stereo not shown)
Response: 2.91

###

assay: Pharmacokinetics in CD-1 mice (plasma concentrations, PK parameters); assay type: in vivo; conditions: CD-1, mouse, plasma, iv, 2 mg/kg, mouse (CD1) iv 2 mg/kg; individual M01-M03; read-out: Vdss
readout_name: Vd (L/kg)
Answers are plain numbers, in L/kg.

Request: Please indicate Vd recorded for NC(=O)c1nn(-c2ccc(C(=O)NCCOCCOCCNc3cccc4c3C(=O)N(C3CCC(=O)NC3=O)C4=O)cc2)cc1NC(=O)c1coc(-c2ccnc(NCC(F)(F)F)c2)n1 (stereo not shown)
Response: 5.73

Data provenance is patent US10874743B2.
